Entry source: PubChem BioAssay AID2685

Assay: qHTS Assay for Lipid Storage Modulators in Drosophila S3 Cells
Details: BODIPY lipid droplet fluorescence, 18-24 h, cells fed with added oleic acid; series mostly up to 46.1 µM
From the text: NIH Molecular Libraries Probe Production Centers Network [MLPCN] NIH Chemical Genomics Center [NCGC] […] Triacsin C (Sigma-Aldrich T-4540), an inhibitor of long-chain fatty acyl CoA synthetase that blocks synthesis of triglycerides, was used as a positive control for lipid under-storage. […] Fluorescence was detected by excitation of the fluorophores with a 488-nm laser on an Acumen Explorer (TTP Lab Tech). […] Cells were detected using channel 3 (575-640 nm) with 5-um width and 100-um depth filters. […]
In all, about 320,000 compounds went through this assay and about 2,100 (0.66%) were called active. Inconclusive results (about 53%) are left out. Calls come from the whole dose curve; as a rule, active = well fitted inhibition curve with a large enough effect in the signal ratio, with a control signal flat (not every such curve was filed as active); inconclusive = small, poorly fitted or top-dose-only effect, or effect the other way, or a change in a side signal; inactive = flat fitted curve, though single readings scatter; the % refers to the signal ratio. The list comes from a sample in which actives are over-represented; it also holds close analogues and randomly drawn compounds.
Result category, one only: TRUE for active, FALSE for inactive

Examples with answers:
COMPOUND | ASSIGNED_LABEL
O=C(O)c1ccc(NC(=O)c2cn(-c3ccccc3)nc2-c2cccc(Cl)c2)cc1 | FALSE
CN1CCS/C1=C\C=C1/SC(=S)N(CC(=O)O)C1=O | FALSE
Nc1nc(COc2ccc(F)cc2Cl)nc(N2CCCCC2)n1 | FALSE

Query block: What did this assay record as the result for O=C(Nc1ccc(Cl)cn1)c1cccc(S(=O)(=O)N2CCCCC2)c1 ?
Result block: FALSE

Query block: What did this assay record as the result for CN1CCS/C1=C/C=C1\SC(=S)N(CC(=O)O)C1=O ?
Result block: FALSE

Query block: What did this assay record as the result for CC(=O)Nc1ncc(Cc2cccc(Cl)c2Cl)s1 ?
Result block: FALSE

Query block: What did this assay record as the result for CCCCCOC(=O)c1ccccc1C(=O)O ?
Result block: FALSE

Query block: What did this assay record as the result for COc1ccc2c(c1)[nH]c1c(=O)n(N)cnc12 ?
Result block: FALSE

Query block: What did this assay record as the result for COc1ccc2nc(SCC(=O)NC3CCCCC3C)[nH]c2c1 (stereo not drawn) ?
Result block: TRUE

Query block: What did this assay record as the result for COc1cccc(-c2noc(C3CCCN(C(=O)c4cccc(F)c4)C3)n2)c1 (stereo not drawn) ?
Result block: FALSE

Query block: What did this assay record as the result for CCCCN1C(=O)/C(=C/C=C2/CC(C)(C)CN2C)SC1=S ?
Result block: TRUE

Query block: What did this assay record as the result for O=C(CSc1ncnc2c1nnn2Cc1ccccc1)NC1CCCC1 ?
Result block: FALSE

Query block: What did this assay record as the result for COC(=O)c1ccc(C23CC4(C2)[C@H](CN(CC2CCCCC2)[C@@H]4c2ccccc2)C3c2ccccc2)cc1 (stereo partly drawn) ?
Result block: FALSE

Query block: What did this assay record as the result for CN(C)S(=O)(=O)c1ccc(N2CCCC2)c(C(=O)Nc2ccccc2F)c1 ?
Result block: FALSE

###

experiment: qHTS Assay for Lipid Storage Modulators in Drosophila S3 Cells; conditions: BODIPY lipid droplet fluorescence, 18-24 h, cells fed with added oleic acid; measured here: cell count max response;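 for cell number change: cells counted by Cell Tracker Red CMTPX staining in the red channel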
Hit rate of the full screen: of about 320,000 compounds, about 2,100 (0.66%) were called active. Another 53% or so got no clear call; they are omitted. Only a selection was taken, and actives are over-represented in it overall.
MEASURED_ENDPOINT: cell number change (%)
// note: answer is a bare numeric in %

COMPOUND | ENDPOINT_UNIT | cell number change
CC(NC(=O)COC(=O)CCN1C(=O)C2CC=CCC2C1=O)c1ccc(Br)cc1 (stereo unspecified) | % | 1.69
Cc1cc(=O)[nH]c(SCC(=O)O)c1C#N | % | -1.88
CCOC(=O)CSc1[nH]c(=O)cc(C)c1C#N | % | 23.9
COc1ccc2cc(CCNC(=O)c3cccc([N+](=O)[O-])c3)c(=O)[nH]c2c1 | % | 9.49

Query block: Recall and state the measured cell number change for Cc1cc(=O)[nH]c(SCC(N)=O)c1C#N .
Result block: -10.4

Query block: Recall and state the measured cell number change for Cc1ccccc1C(=O)N1CCN(c2ccc(NC(=O)c3cccnc3)cc2)CC1 .
Result block: 24.6
